Each recorded value in this set is attributed to paper PMC5430754.

target or test system: sucrase (Rattus norvegicus, UniProt P23739)
Sequence (P23739 whole entry): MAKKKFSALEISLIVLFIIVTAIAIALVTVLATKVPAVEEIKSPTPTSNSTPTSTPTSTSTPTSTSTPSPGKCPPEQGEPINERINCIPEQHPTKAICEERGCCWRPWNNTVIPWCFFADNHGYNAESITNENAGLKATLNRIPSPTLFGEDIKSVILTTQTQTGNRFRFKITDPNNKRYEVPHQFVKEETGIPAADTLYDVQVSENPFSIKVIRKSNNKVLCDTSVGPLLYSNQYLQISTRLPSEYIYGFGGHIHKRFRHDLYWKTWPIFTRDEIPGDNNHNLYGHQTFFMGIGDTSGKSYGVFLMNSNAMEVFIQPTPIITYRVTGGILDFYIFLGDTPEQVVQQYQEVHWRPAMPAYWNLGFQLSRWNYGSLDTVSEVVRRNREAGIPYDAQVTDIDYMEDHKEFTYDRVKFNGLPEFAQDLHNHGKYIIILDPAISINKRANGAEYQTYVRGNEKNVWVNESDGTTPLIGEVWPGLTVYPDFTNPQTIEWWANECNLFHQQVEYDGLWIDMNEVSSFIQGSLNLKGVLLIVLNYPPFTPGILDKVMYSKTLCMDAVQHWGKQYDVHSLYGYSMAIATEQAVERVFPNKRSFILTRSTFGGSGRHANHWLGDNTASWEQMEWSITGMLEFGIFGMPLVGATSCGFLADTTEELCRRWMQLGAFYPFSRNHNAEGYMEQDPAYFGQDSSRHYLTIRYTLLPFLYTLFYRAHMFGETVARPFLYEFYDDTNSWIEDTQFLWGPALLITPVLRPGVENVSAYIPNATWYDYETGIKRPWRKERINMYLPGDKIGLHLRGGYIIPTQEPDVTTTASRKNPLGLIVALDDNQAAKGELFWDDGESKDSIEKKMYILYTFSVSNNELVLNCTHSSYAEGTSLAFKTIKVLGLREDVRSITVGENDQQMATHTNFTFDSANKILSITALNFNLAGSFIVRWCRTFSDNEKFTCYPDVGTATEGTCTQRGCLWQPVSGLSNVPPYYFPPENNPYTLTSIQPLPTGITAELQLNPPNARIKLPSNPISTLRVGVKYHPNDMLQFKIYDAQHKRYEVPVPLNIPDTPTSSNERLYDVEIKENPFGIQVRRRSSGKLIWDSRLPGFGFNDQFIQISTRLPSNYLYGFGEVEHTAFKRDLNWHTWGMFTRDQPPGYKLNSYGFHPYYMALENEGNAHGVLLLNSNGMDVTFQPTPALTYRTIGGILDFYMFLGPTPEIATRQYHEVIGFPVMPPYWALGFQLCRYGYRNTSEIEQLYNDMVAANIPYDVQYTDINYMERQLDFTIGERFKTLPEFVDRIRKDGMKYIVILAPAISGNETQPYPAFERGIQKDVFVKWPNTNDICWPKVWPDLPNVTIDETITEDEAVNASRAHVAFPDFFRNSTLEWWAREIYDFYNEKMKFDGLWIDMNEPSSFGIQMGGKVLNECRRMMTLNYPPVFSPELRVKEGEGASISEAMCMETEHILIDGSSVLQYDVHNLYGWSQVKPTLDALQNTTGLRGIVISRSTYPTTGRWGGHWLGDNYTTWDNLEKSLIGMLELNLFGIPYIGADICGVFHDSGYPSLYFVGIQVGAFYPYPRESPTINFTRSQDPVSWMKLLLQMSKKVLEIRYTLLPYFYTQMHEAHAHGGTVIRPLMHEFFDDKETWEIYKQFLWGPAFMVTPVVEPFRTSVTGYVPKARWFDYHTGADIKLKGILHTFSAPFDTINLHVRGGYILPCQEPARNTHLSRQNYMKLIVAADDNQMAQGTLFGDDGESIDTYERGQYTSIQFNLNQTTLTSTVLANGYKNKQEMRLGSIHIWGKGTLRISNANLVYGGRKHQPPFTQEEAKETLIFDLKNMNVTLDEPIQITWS
method: α-glucosidase
Assay type: biochemical
experimental context: read-out: Sucrase IC50; isolated compounds
I'd be grateful if you could share measured IC50 for these entries.

Record request: IC50 value, item O=C(/C=C/c1ccc(O)c(O)c1)O[C@@H]1Cc2c(O)cc(O)cc2O[C@@H]1c1ccc(O)c(O)c1 [Compound 3, (–)-epicatechin-3-O-(E)-caffeate]
107 µM

If you can, please state the reported IC50 value of O=C(/C=C/c1ccc(O)cc1)O[C@@H]1Cc2c(O)cc(O)cc2O[C@@H]1c1ccc(O)c(O)c1 [Compound 2, (–)-epicatechin-3-O-(E)-coumarate] .
62.1 µM
